- Target Under Test: memapsin 2 (Cricetulus griseus, UniProt G3IAK4)
- Construct: endogenous in cells
- Sequence (G3IAK4 22-501): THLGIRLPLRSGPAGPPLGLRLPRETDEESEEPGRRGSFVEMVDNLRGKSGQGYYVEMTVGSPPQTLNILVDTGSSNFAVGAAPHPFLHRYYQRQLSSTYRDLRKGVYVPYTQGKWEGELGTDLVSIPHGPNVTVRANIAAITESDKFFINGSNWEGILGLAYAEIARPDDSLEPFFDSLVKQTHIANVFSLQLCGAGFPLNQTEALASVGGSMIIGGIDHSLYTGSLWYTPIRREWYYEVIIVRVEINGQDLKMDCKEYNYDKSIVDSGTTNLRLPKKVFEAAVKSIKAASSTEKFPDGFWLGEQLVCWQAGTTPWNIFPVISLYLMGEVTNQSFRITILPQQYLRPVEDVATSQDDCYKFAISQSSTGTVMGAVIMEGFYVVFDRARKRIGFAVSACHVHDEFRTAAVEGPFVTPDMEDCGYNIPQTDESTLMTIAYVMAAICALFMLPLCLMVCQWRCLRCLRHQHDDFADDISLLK
- Assay Name: Cellular Aβ IC50 determination (Aβ40 sandwich ELISA)
- Experimental Parameters: CHO cells over-expressing human APP695 with London and Swedish mutations, 24 h, read-out: M2 IC50
Give measured IC50 for each item. Keep answers brief.

What value of IC50 has been recorded for this entry: Cc1csc([C@H]2CCCN2C(=O)c2cncc(C(=O)N[C@@H](Cc3ccccc3)[C@H](O)CNCc3cc(Cl)nc(N(C)C)c3)c2)n1 [2-1, reference compound]
< 500 nM

What value of IC50 has been recorded for this entry: Cc1coc([C@H]2CCCN2C(=O)c2cc(CF)cc(C(=O)N[C@@H](Cc3ccccc3)[C@H](O)CNCc3cccc(C(C)(C)C)c3)c2)n1 [2-7, reference compound]
< 500 nM

What value of IC50 has been recorded for this entry: Cc1csc([C@H]2CCCN2C(=O)c2cc(CF)cc(C(=O)N[C@@H](Cc3ccccc3)[C@H](O)[C@H]3C[C@@H](OCc4ccccc4)CN3)c2)n1 [1-36]
< 500 nM

---

- Assay Name: Hepatic intrinsic clearance in liver microsomes
- Format: in vitro ADME
- Experimental Parameters: human, pH 7.4, human liver microsomes, in vitro clearance, read-out: HLM CL
Metric: CLint scaled at 200 μM

What value of CLint scaled at 200 μM has been recorded for this entry: Cc1cc(C(=O)N[C@@H](Cc2ccccc2)[C@H](O)[C@H]2CCCN2)cc(C(=O)N2CCC[C@@H]2c2nc(C)co2)c1
< 400 mL/min/kg

What value of CLint scaled at 200 μM has been recorded for this entry: Cc1csc([C@H]2CCCN2C(=O)c2cccc(C(=O)N[C@@H](Cc3ccccc3)[C@H](O)[C@H]3CCCN3)c2)n1
< 400 mL/min/kg

What value of CLint scaled at 200 μM has been recorded for this entry: Cc1cc(C(=O)N[C@@H](Cc2ccccc2)[C@H](O)CNCc2cncc(C(C)(C)C)c2)cc(C(=O)N2CCC[C@@H]2c2nc(C)co2)c1 [2-3, reference compound]
> 700 mL/min/kg

What value of CLint scaled at 200 μM has been recorded for this entry: Cc1csc(CN(C)C(=O)c2cc(C(=O)N[C@@H](Cc3ccccc3)[C@H](O)[C@H]3CCCN3)cc(-c3ncco3)c2)n1
< 400 mL/min/kg

What value of CLint scaled at 200 μM has been recorded for this entry: Cc1csc([C@H]2CCCN2C(=O)c2cc(F)cc(C(=O)N[C@@H](Cc3ccccc3)[C@H](O)[C@H]3CCCN3)c2)n1
< 400 mL/min/kg

What value of CLint scaled at 200 μM has been recorded for this entry: CCn1cc(CNC[C@@H](O)[C@H](Cc2ccccc2)NC(=O)c2cc(C)cc(C(=O)N3CCC[C@@H]3c3nc(C)co3)c2)cn1 [2-5, reference compound]
> 700 mL/min/kg

---

Give measured Ki for each item. Keep answers brief.

What measured Ki is associated with Cc1csc(CN(C)C(=O)c2cccc(C(=O)N[C@@H](Cc3ccccc3)[C@H](O)[C@H]3C[C@H](F)CN3)c2)n1 [1-60] on memapsin 2 (Homo sapiens)?
> 750 nM

What measured Ki is associated with Cc1csc([C@H]2CCCN2C(=O)c2cc(C(=O)N[C@@H](Cc3ccccc3)[C@H](O)[C@H]3C[C@H](F)CN3)cc(-c3ncco3)c2)n1 [1-38] on memapsin 2 (Homo sapiens)?
< 250 nM

What measured Ki is associated with C=C(C)c1cccc(CNC[C@@H](O)[C@H](Cc2ccccc2)NC(=O)c2cccc(C(=O)N3CCC[C@@H]3c3nc(C)co3)c2)c1 [2-6, reference compound] on memapsin 2 (Homo sapiens)?
< 250 nM

What measured Ki is associated with Cc1csc([C@H]2CCCN2C(=O)c2cc(C(=O)N[C@@H](Cc3ccccc3)[C@H](O)[C@H]3C[C@@H](Oc4ccccc4)CN3)cc(-c3ncco3)c2)n1 [1-79] on memapsin 2 (Homo sapiens)?
< 250 nM

What measured Ki is associated with Cc1csc([C@H]2CCCN2C(=O)c2cc(C(=O)N[C@@H](Cc3ccccc3)[C@H](O)[C@H]3CCCN3)cc(N3CCOCC3)c2)n1 [1-33] on memapsin 2 (Homo sapiens)?
> 750 nM

What measured Ki is associated with Cc1csc([C@H]2CCCN2C(=O)c2cc(I)cc(C(=O)N[C@@H](Cc3ccccc3)[C@H](O)[C@H]3CCCN3)c2)n1 [1-71] on memapsin 2 (Homo sapiens)?
< 250 nM

Data credit: patent US20120214802A1
